# test-details: chemical genetic growth profiling, strain panel (AID 1159580);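 also: tested at 20 µM; growth read once vehicle control cultures reached saturation at 30 °C; lower values mean less growth of the strain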
# condition-label: S. cerevisiae strains, growth OD, strain wild type
Among all 5,500 compounds or so, about 2,000 (36%) were called active. Roughly 18% stayed inconclusive and do not appear here. Rule as the data show it: active = normalized growth mostly below about 0.91 (no sharp cut-off); inconclusive = no clear call, values can overlap the other calls; inactive = mostly above about 0.92. Some of the results follow.
Allowed answers: active, inactive

Use the examples below as a reference point.
compound: CCOC(=O)NNc1nncc2ccccc12
class-name: inactive
--
compound: OC[C@H]1O[C@@H](O[C@@H]2[C@@H](CO)O[C@](O)(CO)[C@H]2O)[C@H](O)[C@@H](O)[C@H]1O
class-name: inactive
--
compound: C/C1=C\CC(C)(C)/C=C/CC2(C)OC2CC1 (centres undefined)
class-name: inactive
--
compound: CC(C)CCCC(C)[C@H]1CCC2C3C(=O)C=C4C[C@@H](O)CC[C@]4(C)C3CC[C@@]21C (some centres undefined)
class-name: inactive
--
compound: COC(=O)/C(=C1\OC(=O)C(c2ccccc2)=C1O)c1ccccc1
class-name: inactive
--
compound: CCCOc1ccc2nc(NC(=O)OC)[nH]c2c1
class-name: inactive
--
compound: Cn1c(CSc2ccccc2)n[nH]c1=S
class-name: inactive
--
compound: COC(OC)c1cc(=O)[nH]c(=S)[nH]1
class-name: inactive

QUERY: Hi team, can someone confirm the assay call for "CSc1ncc(C#N)c2nc(-c3ccc(N(C)C)cc3)nn12" ?
RESULT: inactive

QUERY: Recorded test outcome, item "Nc1ccc2nonc2c1N"
RESULT: inactive

Values from PubChem BioAssay AID1159580
